Target: Delta-type opioid receptor (Homo sapiens, UniProt P41143)
Sequence (P41143 whole entry): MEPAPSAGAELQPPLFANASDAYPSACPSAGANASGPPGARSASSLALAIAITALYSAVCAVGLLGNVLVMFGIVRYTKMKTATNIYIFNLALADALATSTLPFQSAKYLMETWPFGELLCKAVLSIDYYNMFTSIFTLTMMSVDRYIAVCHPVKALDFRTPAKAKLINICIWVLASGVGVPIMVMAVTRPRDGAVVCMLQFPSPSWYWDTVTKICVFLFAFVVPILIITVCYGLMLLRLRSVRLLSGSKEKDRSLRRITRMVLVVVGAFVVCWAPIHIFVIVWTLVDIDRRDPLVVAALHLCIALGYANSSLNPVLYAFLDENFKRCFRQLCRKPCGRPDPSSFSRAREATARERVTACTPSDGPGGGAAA
Assay: Agonist activity at human delta opioid receptor over-expressed in CHO cell membrane after 1 hr by [35S]GTPgammaS binding assay
property_label: EC50 (µM)
Numbers only, in µM.

Request: Look up and state reported EC50 for COc1cc(/C=C/c2ccc(O)c(O)c2CC=C(C)C)c(C/C=C(\C)CCC=C(C)C)c(OC)c1
Result: 6.6
